Parameter IC50: see the listing below.
# Study System: α4β1 integrin (VLA-4) on Ramos cells / recombinant human VCAM-1 (extracellular domains 1–3) (Homo sapiens, UniProt P05556+P13612)
# Sequence (P13612 34-1032): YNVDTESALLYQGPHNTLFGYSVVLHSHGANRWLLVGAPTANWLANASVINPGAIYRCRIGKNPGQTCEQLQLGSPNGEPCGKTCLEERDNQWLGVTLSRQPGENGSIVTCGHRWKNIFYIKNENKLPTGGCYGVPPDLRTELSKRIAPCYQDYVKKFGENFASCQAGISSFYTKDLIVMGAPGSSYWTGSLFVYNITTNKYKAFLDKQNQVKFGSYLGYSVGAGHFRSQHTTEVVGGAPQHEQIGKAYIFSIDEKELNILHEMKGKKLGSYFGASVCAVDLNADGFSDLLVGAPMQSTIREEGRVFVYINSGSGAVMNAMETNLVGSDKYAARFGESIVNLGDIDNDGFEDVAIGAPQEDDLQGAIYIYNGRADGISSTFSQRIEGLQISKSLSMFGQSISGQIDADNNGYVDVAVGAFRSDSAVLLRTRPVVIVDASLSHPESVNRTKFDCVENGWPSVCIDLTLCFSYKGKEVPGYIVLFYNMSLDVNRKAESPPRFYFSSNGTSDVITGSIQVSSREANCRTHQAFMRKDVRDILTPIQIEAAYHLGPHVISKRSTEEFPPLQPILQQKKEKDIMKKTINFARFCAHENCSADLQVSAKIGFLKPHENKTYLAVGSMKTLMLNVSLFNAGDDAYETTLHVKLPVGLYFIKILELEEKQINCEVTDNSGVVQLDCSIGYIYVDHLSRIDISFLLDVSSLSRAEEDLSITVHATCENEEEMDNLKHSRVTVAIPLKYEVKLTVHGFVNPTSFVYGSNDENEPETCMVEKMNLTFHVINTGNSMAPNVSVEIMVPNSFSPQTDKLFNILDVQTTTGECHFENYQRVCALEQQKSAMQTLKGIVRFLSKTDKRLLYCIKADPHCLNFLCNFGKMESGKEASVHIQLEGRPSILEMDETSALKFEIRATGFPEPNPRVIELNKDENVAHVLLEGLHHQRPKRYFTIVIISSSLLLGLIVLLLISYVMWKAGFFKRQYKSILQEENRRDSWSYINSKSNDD
# Sequence (P05556 21-798): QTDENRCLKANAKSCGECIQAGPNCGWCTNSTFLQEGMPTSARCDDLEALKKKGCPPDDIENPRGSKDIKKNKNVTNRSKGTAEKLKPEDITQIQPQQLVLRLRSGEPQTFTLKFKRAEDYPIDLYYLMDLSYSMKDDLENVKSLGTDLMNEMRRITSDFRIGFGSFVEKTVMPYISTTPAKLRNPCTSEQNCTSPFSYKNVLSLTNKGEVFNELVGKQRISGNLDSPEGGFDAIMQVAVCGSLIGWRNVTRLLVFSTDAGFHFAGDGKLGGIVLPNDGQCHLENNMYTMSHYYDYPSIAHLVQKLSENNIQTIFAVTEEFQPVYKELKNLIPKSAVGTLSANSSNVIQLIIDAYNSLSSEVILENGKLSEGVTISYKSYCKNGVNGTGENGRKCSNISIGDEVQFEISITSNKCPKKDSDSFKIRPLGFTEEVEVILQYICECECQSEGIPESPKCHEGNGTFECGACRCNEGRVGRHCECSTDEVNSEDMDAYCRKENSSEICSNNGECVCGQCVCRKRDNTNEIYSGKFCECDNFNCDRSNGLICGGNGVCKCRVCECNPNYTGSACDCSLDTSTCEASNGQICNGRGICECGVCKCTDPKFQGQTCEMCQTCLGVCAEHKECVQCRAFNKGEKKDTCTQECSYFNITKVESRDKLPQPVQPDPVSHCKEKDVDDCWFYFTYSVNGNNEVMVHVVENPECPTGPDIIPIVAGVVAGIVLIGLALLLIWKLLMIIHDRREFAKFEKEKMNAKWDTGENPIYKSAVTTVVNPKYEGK
# Measurement Protocol: Adhesion of Ramos cells to immobilized VCAM-1 (domains 1–3)
# Condition Context: Ramos VCAM-1 assay; observed IC50 value ranges

Consider the worked cases shown below.
compound="Cc1ccccc1NC(=O)Nc1ccc(NC(=O)CC(C(=O)Nc2ccc(C(=O)O)cc2)c2ccccc2)cc1 (stereo not drawn)" assay_value="> 10000 nM"
compound="Cc1ccccc1NC(=O)Nc1ccc(CNC(=O)CC(C(=O)Nc2ccc(C(=O)O)cc2)c2ccccc2)cc1 (stereo not drawn)" assay_value="< 1000 nM"

With those in mind, consider the next compound.
[Q] Could you share which IC50 value was measured for Cc1ccccc1NC(=O)Nc1ccc(NC(=O)C(CC(=O)Nc2ccc(C(=O)O)cc2)c2ccccc2)cc1 (stereo not drawn) ?
[A] < 1000 nM
